# credit: PubChem BioAssay

Experiment: inhibition of 3D7 malaria parasite growth – strain 3D7 (AID 2306);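 note: 0% = DMSO wells and 100% = chloroquine plus artemisinin control wells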
Settings: P. falciparum 3D7 erythrocytic growth, LDH absorbance, 72 h; at 2 µM; stronger effect = higher value
ENDPOINT LABEL: growth inhibition (%)
Give just the number in %; leave the unit off.

Any idea what growth inhibition was measured for COC(=O)c1ccc(C[C@@H](C)NC[C@H](O)c2cccc(C(F)(F)F)c2)cc1 ? 97

Any idea what growth inhibition was measured for COc1cc(C=CC(=O)NC2CCC(CN3CCC(c4c[nH]c5ccccc45)CC3)CC2)cc(OC)c1 (centres undefined) ? 101

Any idea what growth inhibition was measured for CC[C@H]1CN2CC[C@@H]1C[C@H]2[C@H](O)c1cc(-c2ccc(Cl)c(Cl)c2)nc2ccc(O)cc12 ? 98

Any idea what growth inhibition was measured for COC(=O)CN(C(=O)/C=C/c1ccc(Cl)c(Cl)c1)C1CCC(CN2CCC(c3c[nH]c4ccccc34)CC2)CC1 (centres undefined) ? 100

Any idea what growth inhibition was measured for COc1cc(C=CC(=O)N2CCC(CN3CCC(c4c[nH]c5ccccc45)CC3)CC2)cc(OC)c1 ? 95

Any idea what growth inhibition was measured for Cc1[nH]c2ccc(NS(C)(=O)=O)cc2c1C1CCN(CC2CCN(C(=O)/C=C/c3ccc(Cl)c(Cl)c3)CC2)CC1 ? 99

Any idea what growth inhibition was measured for COc1ccc(CN2CCN(CCOC(c3ccc(F)cc3)c3ccc(F)cc3)CC2)c(O)c1 ? 97

Any idea what growth inhibition was measured for CC(C)CNCc1ccc(-c2cccc(CN(C(=O)Nc3ccccc3)C3CCN(Cc4ccccc4)CC3)c2)cc1 ? 101

Any idea what growth inhibition was measured for Cc1ccc(C[C@H](C)NC[C@H](O)c2cccc(C(F)(F)F)c2)cc1 ? 100

---

Assay: sensitizers of A549 cells to miR-34 induction, primary screen, imaging, A549 dox-inducible miR-34, nuclei and caspase counts (AID 1347080)
Settings: A549 miR-34 inducible, Hoechst nuclei count, 48 h; measured here: total cells with miR-34 induction; stronger effect = lower value
Each entry falls into one class according to its cell count; the ranges are I = under 8000, II = from 8000 up to 9000, III = 9000 and over

Any idea which band CN1CCC[C@@H]1Cc1c[nH]c2ccc(Nc3ncccc3[N+](=O)[O-])cc12 is in? I

Any idea which band COc1cccc([C@@]2(O)CCCC[C@@H]2CN(C)C)c1 is in? III

Any idea which band COc1c2c(cc3c1OCO3)CCN(C)C2 is in? III

Any idea which band CCCN(CCC)[C@H]1CCc2c(F)ccc(O)c2C1 is in? III

Any idea which band CN1C[C@H](CO)C=C2c3cccc4[nH]cc(c34)C[C@H]21 is in? II

Any idea which band CCCC[C@@H](C)[C@@H](OC(=O)C[C@@H](CC(=O)O)C(=O)O)[C@H](C[C@@H](C)C[C@H](O)CCCC[C@@H](O)C[C@H](O)[C@H](C)N)OC(=O)C[C@H](CC(=O)O)C(=O)O is in? I

Any idea which band C=CCC1(C(C)CCC)C(=O)N=C(S)NC1=O (centres undefined) is in? III

Any idea which band O=C(NCNC(=O)NC1C(=O)NC(=O)N1CO)NC1C(=O)NC(=O)N1CO (centres undefined) is in? III

Any idea which band CCCCCC(/C=C/C=O)OO (centres undefined) is in? I

Any idea which band CCCC(C)C1(CC)C(=O)N=C(S)NC1=O (centres undefined) is in? III

Any idea which band OCc1cnc[nH]1 is in? III

Any idea which band Cn1c2cccc(=O)c-2nc2ccccc21 is in? I

Any idea which band C/C=C1/C[C@@H](C)[C@](O)(CO)C(=O)OCC2=CCN3CC[C@@H](OC1=O)[C@@H]23 is in? II

Any idea which band O=c1[nH]c(=O)n(Cl)c(=O)n1Cl is in? II

Any idea which band c1cc2ccc(N3CCNCC3)cc2cn1 is in? I

Any idea which band N[C@@H]1C[C@H]1c1ccccc1 is in? III

Any idea which band Oc1cc2c(cc1O)C1c3ccccc3CNC1CC2 (centres undefined) is in? III

Any idea which band CC(=O)N(C)c1cccc(-c2ccnc3c(C(=O)c4cccs4)cnn23)c1 is in? I

Any idea which band CNC(=O)Oc1ccccc1OC(C)C is in? II

---

Experiment: differential killing of epithelial or mesenchymal cells, primary screen, imaging, PC-3E GFP, TEM4-18 mCherry, co-culture (AID 1345086);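 note: cells exposed to compound for 72 h before imaging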
Conditions: imaging cell counts, measured here: mesenchymal TEM4-18 mCherry cell survival, at 1 µM
ENDPOINT LABEL: normalised cell number

Any idea what normalised cell number was measured for COc1cccc(C=O)c1OC ? 1.02

Any idea what normalised cell number was measured for C[C@@H](N)[C@@H](O)c1ccccc1 ? 1.1

Any idea what normalised cell number was measured for CC(=O)OC1CC[C@@]2(C)C(CCC3C2CC[C@]2(C)C(C4=CC(=O)OC4)C(OC(C)=O)CC32O)C1 (some centres not stated) ? 0.03

Any idea what normalised cell number was measured for O=C1C=CC(=O)c2ccccc21 ? 1.02

Any idea what normalised cell number was measured for COc1cc(=O)oc(/C=C/C=C/C=C/C(C)=C/[C@@]2(C)O[C@@H](C)[C@@](C)(O)[C@@H]2O)c1C ? 0.85

Any idea what normalised cell number was measured for O=c1[nH]c2ccccc2n1CCCN1CCC(n2c(=O)[nH]c3cc(Cl)ccc32)CC1 ? 1.1

Any idea what normalised cell number was measured for CC(C)=CCCC1(C)C=Cc2c(O)c3c(c(CC=C(C)C)c2O1)OC12C(=CC4CC1C(C)(C)OC2(C/C=C(/C)C(=O)O)C4O)C3=O (configuration not stated) ? 0.87

Any idea what normalised cell number was measured for NC1C[C@H]1c1ccccc1 (some centres not stated) ? 1.22

Any idea what normalised cell number was measured for CNc1ccccc1C(=O)O ? 0.95

Any idea what normalised cell number was measured for O=C1C=CC(=O)c2c(O)cccc21 ? 1.03

Any idea what normalised cell number was measured for Cc1cc(O)cc2oc(=O)c3c(O)cc(O)cc3c12 ? 0.88

Any idea what normalised cell number was measured for CCOC(=O)c1cncn1[C@H](C)c1ccccc1 ? 0.93

Any idea what normalised cell number was measured for CCC1(CC)C(=O)NC(=O)NC1=O ? 0.78

Any idea what normalised cell number was measured for CN1C2CC(=O)CC1[C@H](O)C2 (some centres not stated) ? 1.01

Any idea what normalised cell number was measured for CNc1ccc(C(=O)CC(O)CCC(C)C2OC(=O)CC(O)CC(=O)CC(O)CC(O)CC(O)CC(O)CC3(O)CC(O)C(C(=O)OC)C(CC(O[C@@H]4O[C@H](C)[C@@H](O)[C@H](N)[C@@H]4O)/C=C/C=C/C=C/C=C/C=C/C=C/C=C/C2C)O3)cc1 (some centres not stated) ? 1.14

Any idea what normalised cell number was measured for CC(=O)O[C@@H]1CC[C@]2(C)C3CC[C@]4(C)C(=O)CCC4C3CC[C@H]2C1 (some centres not stated) ? 1.12

Any idea what normalised cell number was measured for O=C1c2ccccc2C(=O)c2ccccc21 ? 0.92

Any idea what normalised cell number was measured for C[N+]1(C)C2CCC1CC(OC(=O)C(CO)c1ccccc1)C2 (configuration not stated) ? 1

Any idea what normalised cell number was measured for c1ccc2nc(N3CCNCC3)ccc2c1 ? 1.34

Any idea what normalised cell number was measured for CC[n+]1c(-c2ccccc2)c2cc(N)ccc2c2ccc(N)cc21 ? 0.87

Any idea what normalised cell number was measured for CCCCCCCCCCNCCC (tested in a mixture with another compound) ? 0.93

Any idea what normalised cell number was measured for COc1cc([C@@H]2c3cc4c(cc3[C@H](OC(C)=O)C3COC(=O)[C@@H]32)OCO4)cc(OC)c1OC (some centres not stated) ? 0.16

---

Assay: sensitizers of A549 cells to miR-34 induction, primary screen, imaging, A549 dox-inducible miR-34, nuclei and caspase counts (AID 1347080)
Conditions: A549 miR-34 inducible, Hoechst nuclei count, 48 h; measured here: relative caspase fold change +Dox/-Dox
ENDPOINT LABEL: fold change
Note: the reply should be a number with no unit written.

Any idea what fold change was measured for CC(=Cc1csc(C)n1)C1CC2O[C@]2(C)CCCC(C)C(O)C(C)C(=O)C(C)(C)C(O)CC(=O)O1 (stereo partly specified) ? 0.662

Any idea what fold change was measured for Cc1ccccc1-n1c(Cn2ncc3c(N)ncnc32)nc2cccc(C)c2c1=O ? 0.968

Any idea what fold change was measured for CN=C(NS(=O)(=O)c1ccc(Cl)cc1)N1C[C@H](c2ccccc2)C(c2ccc(Cl)cc2)=N1 ? 1.16

Any idea what fold change was measured for C[C@H](NC[C@H](O)CP(=O)(O)CC1CCCCC1)c1ccc(Cl)c(Cl)c1 ? 0.73

Any idea what fold change was measured for CCCCCCC(=O)O[C@H]1CC[C@H]2[C@@H]3C=CC4=CC(=O)CC[C@]4(C)[C@H]3CC[C@]12C ? 0.362

Any idea what fold change was measured for COc1ccc2[nH]c3c(c2c1)CCN=C3C ? 1.33

Any idea what fold change was measured for C[C@]12CC[C@H](O)CC1=CCC1C2CC[C@]2(C)C(=O)CC[C@@H]12 (stereo partly specified) ? 1.12

Any idea what fold change was measured for O=C1OCCN1N=Cc1ccc([N+](=O)[O-])o1 ? 1.27

Any idea what fold change was measured for c1ccc2c3c([nH]c2c1)CNCC3 ? 1.28

Any idea what fold change was measured for O=S(=O)(CC1CS1)c1ccc(Oc2ccccc2)cc1 (stereo unspecified) ? 0.577

Any idea what fold change was measured for NNC(=O)c1ccc(O)cc1 ? 1.57
